Provide the recorded gMFIr Human CD56 int. NK for the entries that follow.
- Test System: T1, human PVRIG on cells (human, UniProt Q6DKI7 1-326)
- T1 construct: whole, on cells; over-expressed on HEK cells or endogenous on Jurkat and CD8 T cells; also called hPVRIG; HEK hPVRIG cells
- T1 sequence (looked up): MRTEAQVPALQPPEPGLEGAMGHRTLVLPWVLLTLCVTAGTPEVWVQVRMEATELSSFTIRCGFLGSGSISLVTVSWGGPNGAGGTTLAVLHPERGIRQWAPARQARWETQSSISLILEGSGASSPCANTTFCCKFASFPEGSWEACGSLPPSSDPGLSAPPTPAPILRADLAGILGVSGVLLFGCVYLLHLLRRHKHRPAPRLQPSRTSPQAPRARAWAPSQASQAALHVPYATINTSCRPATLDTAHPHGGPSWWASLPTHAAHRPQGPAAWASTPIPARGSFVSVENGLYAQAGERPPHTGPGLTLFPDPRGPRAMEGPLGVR
- Assay Details: FACS, human PBMC, CD56 int. NK cells, 10ug/ml
I only need the number, thanks.

Returns the measured gMFIr Human CD56 int. NK for the input binder. Input: CHA.7.548 (antibody, V domains shown) VH: EVQLQQSGPELVKPGASVKISCKASGYTFTDYSMNWVKQSHGKSLEWIGDITPNNGSPNYNQKFKDKATLTVDKSSSTVYMELRSLTSEDSAVYYCASLFFDYWGHGTTLTVSS VL: DIVMTQSPSSLSVSAGEKVTMSCKSSQSLLNSGNQKNYLAWYQQKPGQPPKLLIYGASTRDSGVPDRFTGSGSGTDFTLTITSVQAEDLAVYYCQNDHTYPYTFGGGTKLEIK
3.15

Let us now turn to CHA.7.526 (antibody, V domains shown) VH: QVQLKESGPGLVAPSQSLSITCTVSGFSLTAYNINWVRQPPGKGLEWLGMIWGDGNTDYNSPLKSRLTISKDNSKSQVFLKMDSLQTDDTARYYCARDLKVRRDSPYTMDYWGQGTSVTVSS VL: NIMMTQSPSSLAVSAGEKVTMSCKSSQSVLYSSNQKNYLAWYQQKPGQSPKLLIYWASNRESGVPDRFTGSGSGTDFTLTISSVQAEDLAVYYCHQYLSSYTFGGGTKLEIK
2.08

Let us now turn to CHA.7.534 (antibody, V domains shown) VH: EVQLQQSGAELVKPGASVRLSCTASGFSIRDTYIHWVKQRPEQGLDWIGKIDPANGKSEYDPKFQGRATMTTDTSSNTAYLQLSSLTSEDTAVYYCTRYGYYPYFDVWGAGTTVTVFS VL: SIVMTQTPKFLLVSAGDRVAITCKASQSVRHDVVWYQQKPGQSPKLLIYYASSRYTGVPDRFTGSGYGTDFTFTISTVQAEDLALYFCLQDFSSPWTFGGGTKLEIK
2.6
